- Tested System: p38 kinase enzyme (Homo sapiens, UniProt Q16539)
- Sequence (Q16539 whole entry): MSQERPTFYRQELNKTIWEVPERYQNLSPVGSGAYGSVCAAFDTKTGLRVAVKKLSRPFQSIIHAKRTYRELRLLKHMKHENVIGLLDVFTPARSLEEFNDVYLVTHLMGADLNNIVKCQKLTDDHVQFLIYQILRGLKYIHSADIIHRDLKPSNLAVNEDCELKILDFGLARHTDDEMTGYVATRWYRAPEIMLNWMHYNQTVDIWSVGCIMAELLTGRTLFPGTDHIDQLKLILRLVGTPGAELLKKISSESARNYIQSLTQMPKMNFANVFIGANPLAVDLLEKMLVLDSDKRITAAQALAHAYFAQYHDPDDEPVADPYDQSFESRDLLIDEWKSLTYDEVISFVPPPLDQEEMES
I'd be grateful if you could share measured IC50 for these entries.
Give bare numbers, in nM.

>  <Compound>
C[C@@H](n1c(N)nc2ccc(-c3[nH]c(-c4c(F)cccc4F)nc3-c3ccc(F)cc3)nc21)C(C)(C)C [compound 13, methanesulfonate]

>  <Tested System>
p38 kinase enzyme (Homo sapiens, UniProt Q16539)

>  <Result Unit>
nM

>  <Reported Measurement>
3.3

$$$$
>  <Compound>
CC(C)(C)Cn1c(N)nc2ccc(-c3[nH]c(-c4c(F)cccc4Cl)nc3-c3ccccc3)nc21 [compound 18, methanesulfonate]

>  <Tested System>
p38 kinase enzyme (Homo sapiens, UniProt Q16539)

>  <Result Unit>
nM

>  <Reported Measurement>
3.6

$$$$
>  <Compound>
Nc1nc2ccc(-c3[nH]c(-c4c(F)cccc4F)nc3-c3ccccc3)nc2n1CC1CC1 [compound 19, methanesulfonate]

>  <Tested System>
p38 kinase enzyme (Homo sapiens, UniProt Q16539)

>  <Result Unit>
nM

>  <Reported Measurement>
3.2

$$$$
>  <Compound>
C[C@@H](n1c(N)nc2ccc(-c3[nH]c(C(C)(C)C)nc3-c3ccc(F)cc3)nc21)C(C)(C)C [compound 12, methanesulfonate]

>  <Tested System>
p38 kinase enzyme (Homo sapiens, UniProt Q16539)

>  <Result Unit>
nM

>  <Reported Measurement>
3.6

$$$$

Here is another compound to look at.
I have this compound here, CC(C)(C)Cn1c(N)nc2ccc(-c3[nH]c(-c4c(F)cccc4C(F)(F)F)nc3-c3ccccc3)nc21 [EXAMPLE 6, methanesulfonate] , and I need its recorded IC50.
7.2

###

- Test system: TNF-α production in mouse peritoneal macrophages
- Protocol Text: Inhibition of TNF-α in vitro (mouse peritoneal macrophages, LPS/interferon-γ, Luminex)
- Type: cell-based
- Condition Description: Mus musculus, Peritoneal macrophage; suppression of TNF-α; macrophages treated with 50 ng/mL LPS and 10 U/mL interferon-γ for 18 h
pIC50: −log10 of the molar value.
Endpoint Name: pIC50

>  <Compound>
CC(C)(C)Cn1c(N)nc2ccc(-c3[nH]c(-c4c(F)cccc4Cl)nc3-c3ccccc3)nc21 [compound 18, methanesulfonate]

>  <Tested System>
TNF-α production in mouse peritoneal macrophages

>  <pIC50>
> 8.04

$$$$
>  <Compound>
C[C@@H](n1c(N)nc2ccc(-c3[nH]c(-c4c(F)cccc4F)nc3-c3ccc(F)cc3)nc21)C(C)(C)C [compound 13, methanesulfonate]

>  <Tested System>
TNF-α production in mouse peritoneal macrophages

>  <pIC50>
> 8.04

$$$$
>  <Compound>
CC(C)(C)Cn1c(N)nc2ccc(-c3[nH]c(C(C)(C)C)nc3-c3ccc(F)cc3F)nc21 [EXAMPLE 11, methanesulfonate]

>  <Tested System>
TNF-α production in mouse peritoneal macrophages

>  <pIC50>
8.62

$$$$
>  <Compound>
Nc1nc2ccc(-c3[nH]c(-c4c(F)cccc4F)nc3-c3ccccc3)nc2n1CC1CC1 [compound 19, methanesulfonate]

>  <Tested System>
TNF-α production in mouse peritoneal macrophages

>  <pIC50>
> 8.04

$$$$
>  <Compound>
CC(C)(C)Cn1c(N)nc2ccc(-c3[nH]c(C(C)(C)C)nc3-c3ccc(F)cc3)nc21 [EXAMPLE 9, methanesulfonate]

>  <Tested System>
TNF-α production in mouse peritoneal macrophages

>  <pIC50>
8.92

$$$$

Here is another compound to look at.
I have this compound here, CC(C)(C)Cn1c(N)nc2ccc(-c3[nH]c(-c4c(F)cccc4C(F)(F)F)nc3-c3ccccc3)nc21 [EXAMPLE 6, methanesulfonate] , and I need its recorded pIC50.
> 8.04

Origin of measurements: patent US7582652B2
